Provenance of the data: patent US11420958B2

# target_or_test_system: human TLR9 (Homo sapiens (Human), UniProt Q9NR96)
# Sequence (Q9NR96 26-1032): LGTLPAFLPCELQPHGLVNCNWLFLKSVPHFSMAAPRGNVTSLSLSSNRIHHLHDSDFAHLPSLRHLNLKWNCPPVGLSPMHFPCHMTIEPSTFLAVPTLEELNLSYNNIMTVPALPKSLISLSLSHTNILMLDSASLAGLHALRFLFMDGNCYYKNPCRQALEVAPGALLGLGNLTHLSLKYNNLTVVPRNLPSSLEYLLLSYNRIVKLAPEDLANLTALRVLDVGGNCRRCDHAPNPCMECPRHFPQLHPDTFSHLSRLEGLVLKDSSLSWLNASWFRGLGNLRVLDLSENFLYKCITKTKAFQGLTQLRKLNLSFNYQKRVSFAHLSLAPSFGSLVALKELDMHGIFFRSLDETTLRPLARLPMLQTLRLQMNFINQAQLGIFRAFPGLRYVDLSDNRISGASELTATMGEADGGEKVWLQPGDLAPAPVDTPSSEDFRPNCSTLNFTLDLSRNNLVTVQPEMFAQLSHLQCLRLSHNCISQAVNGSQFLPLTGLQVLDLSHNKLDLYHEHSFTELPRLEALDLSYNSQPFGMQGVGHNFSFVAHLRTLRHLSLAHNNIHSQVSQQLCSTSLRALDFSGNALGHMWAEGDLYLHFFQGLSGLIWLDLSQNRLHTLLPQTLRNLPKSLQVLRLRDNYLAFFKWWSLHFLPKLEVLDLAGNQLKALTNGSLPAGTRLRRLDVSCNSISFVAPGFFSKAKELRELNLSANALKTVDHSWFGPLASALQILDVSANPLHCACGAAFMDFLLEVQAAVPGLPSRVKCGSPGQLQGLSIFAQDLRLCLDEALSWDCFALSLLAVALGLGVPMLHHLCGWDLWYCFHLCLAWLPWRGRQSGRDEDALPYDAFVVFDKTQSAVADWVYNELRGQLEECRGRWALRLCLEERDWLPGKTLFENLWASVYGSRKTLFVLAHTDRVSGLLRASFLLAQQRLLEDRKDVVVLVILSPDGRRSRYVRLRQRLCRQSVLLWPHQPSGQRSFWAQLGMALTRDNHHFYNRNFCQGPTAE
# experiment_summary: TLR9 inhibition reporter assay (HEK-Blue, SEAP)
# settings: HEK-Blue cells overexpressing human TLR9, ODN2006 5 nM stimulation
quantity: IC50 (nM)

[[record]]
compound = "Cc1cc(-c2[nH]c3ccc(-c4ccc(NC(C)C)nc4)cc3c2C(C)C)ccn1"
op = "="
data_value = 5540

[[record]]
compound = "Cc1cc(-c2[nH]c3ccc(-c4nnc(C(=O)N5CC6CNCC6C5)o4)cc3c2C(C)C)ccn1 (centres unmarked)"
op = "="
data_value = 283

[[record]]
compound = "Cc1cc(-c2[nH]c3ccc(-c4nc5c(s4)CNCC5)cc3c2C(C)C)cc(C)n1"
op = "="
data_value = 365

[[record]]
compound = "COc1ccc(-c2[nH]c3ccc(-c4cnc(N5CCN(C6CCC6)CC5)nc4)cc3c2C(C)C)cc1OC"
op = "="
data_value = 11100

[[record]]
compound = "COc1ccc(-c2[nH]c3ccc(-c4ccnc(C(=O)NC5CCN(C(C)C)CC5)c4)cc3c2C(C)C)cc1OC"
op = "="
data_value = 665

[[record]]
compound = "CC(C)c1c(-c2ccnc3[nH]ncc23)[nH]c2ccc(-c3noc(C[C@@H]4CCCN4)n3)cc12"
op = "="
data_value = 2140

[[record]]
compound = "Cc1cc(-c2[nH]c3ccc(-c4cc5c(s4)CN(C(=O)CN(C)C)CC5)cc3c2C(C)C)ccn1"
op = "="
data_value = 4110

[[record]]
compound = "CCc1c(-c2ccc(OC)c(OC)c2)[nH]c2ccc(-c3noc(C4CCN(C(C)C)CC4)n3)cc12"
op = "="
data_value = 1850

[[record]]
compound = "CC(C)c1c(-c2ccnc3n[nH]cc23)[nH]c2ccc(-c3nc(C(=O)NC4CCN(C(C)C)CC4)co3)cc12"
op = "="
data_value = 427

[[record]]
compound = "Cc1cc(-c2[nH]c3ccc(-c4nnc(C5CCCN(C(C)C)C5)o4)cc3c2CC(F)F)cc(C)n1 (centres unmarked) [Example 314]"
op = "="
data_value = 106

[[record]]
compound = "Cc1cc(-c2[nH]c3ccc(-c4cnc(C5CCNCC5)[nH]4)cc3c2C(C)C)ccn1"
op = "="
data_value = 1210

[[record]]
compound = "Cc1cc(-c2[nH]c3ccc(-c4nnc(Cc5nnn[nH]5)o4)cc3c2C(C)C)ccn1"
op = ">"
data_value = 50000

[[record]]
compound = "COc1ccc(-c2[nH]c3ccc(-c4nc(C(=O)N5CC6CNCC6C5)co4)cc3c2C(C)C)cc1OC (centres unmarked)"
op = "="
data_value = 1580

[[record]]
compound = "CCc1c(-c2ccc(OC)c(OC)c2)[nH]c2ccc(-c3noc(CCNC)n3)cc12"
op = "="
data_value = 2680

[[record]]
compound = "CC(C)c1c(-c2ccnc3[nH]ncc23)[nH]c2ccc(-c3nnc(CNCC#N)o3)cc12"
op = ">"
data_value = 50000

[[record]]
compound = "CC(C)c1c(-c2ccnc3[nH]ncc23)[nH]c2ccc(-c3nnc(C[C@@H]4CCCN4)o3)cc12"
op = "="
data_value = 150

[[record]]
compound = "Cc1cc(-c2[nH]c3ccc(-c4nnc(CCCCN)o4)cc3c2C(C)C)ccn1"
op = "="
data_value = 7270

[[record]]
compound = "CC(C)c1c(-c2ccnc3[nH]ncc23)[nH]c2ccc(-c3nnc(C4CCCN(C)C4)o3)cc12 (centres unmarked) [Example 167]"
op = "="
data_value = 653

[[record]]
compound = "Cc1cc(-c2[nH]c3ccc(-c4ccnc(N5CCN(C(C)C)CC5)c4)cc3c2C(C)C)cc(C)n1"
op = "="
data_value = 303

[[record]]
compound = "COc1ccc(-c2[nH]c3ccc(-c4ccc(N5CCC(c6ccncc6)CC5)cc4)cc3c2C(C)C)cc1OC"
op = ">"
data_value = 50000

[[record]]
compound = "Cc1cc(-c2[nH]c3ccc(-c4cc5c(s4)CN(C(=O)C4CC(=O)N(C)C4)CC5)cc3c2C(C)C)cc(C)n1 (centres unmarked)"
op = "="
data_value = 20400

[[record]]
compound = "COc1ccc(-c2[nH]c3ccc(-c4nnc(CNCCNC(C)=O)o4)cc3c2C(C)C)cc1OC"
op = ">"
data_value = 50000

[[record]]
compound = "Cc1cc(-c2[nH]c3ccc(-c4nnc([C@@H]5CCC[C@@H]5N)o4)cc3c2C(C)C)ccn1"
op = "="
data_value = 752

[[record]]
compound = "CCc1c(-c2ccc(OC)c(OC)c2)[nH]c2ccc(-c3noc([C@@H](N)Cc4c[nH]cn4)n3)cc12"
op = "="
data_value = 19900

[[record]]
compound = "COc1ccc(-c2[nH]c3ccc(-c4nnc(CN(C)C)o4)cc3c2C(C)C)cc1OC"
op = "="
data_value = 12100

[[record]]
compound = "Cc1cc(-c2[nH]c3ccc(-c4ccc(C(N)=O)nc4)cc3c2C(C)C)cc(C)n1"
op = ">"
data_value = 50000

